# Lookup of reported hemolysis at 1 h, 100 µM keyed by entry
# EXPERIMENT SUMMARY: Toxicity against human erythrocytes assessed as hemolysis at 100 uM after 1 hr
# Format: cell-based, Erythrocyte
# TEST CONTEXT: read-out: Activity
The figure you give is taken to be in %; do not add the unit.

Use these answered entries as a reference point.
NCCCCCCCCCCCC(=O)NC(CCCCN)C(=O)NCCCCCCCCCCCC(=O)NC(CCCCN)C(=O)NCCCCCCCCCCCC(=O)NC(CCCCN)C(=O)O (stereo not given) yielded hemolysis at 1 h, 100 µM of 3.4

NCCCCC(N)C(=O)NCCCCCCCCCCCC(=O)NC(CCCCN)C(=O)NCCCCCCCCCCCC(=O)NC(CCCCN)C(=O)NCCCCCCCCCCCC(=O)NC(CCCCN)C(=O)O (stereo not given) yielded hemolysis at 1 h, 100 µM of 2.3

Now look at this one.
NCCCCCCCCCCCC(=O)NC(CCCCN)C(=O)NCCCCCCCCCCCC(=O)NC(CCCCN)C(=O)NCCCCCCCCCCCC(=O)NC(CCCCN)C(=O)NCCCCCCCCCCCC(=O)NC(CCCCN)C(=O)O (stereo not given) yielded hemolysis at 1 h, 100 µM of 24.6
